# targetEntity: 15-LOX (Homo sapiens (Human), UniProt P16050)
# Sequence (P16050 whole entry): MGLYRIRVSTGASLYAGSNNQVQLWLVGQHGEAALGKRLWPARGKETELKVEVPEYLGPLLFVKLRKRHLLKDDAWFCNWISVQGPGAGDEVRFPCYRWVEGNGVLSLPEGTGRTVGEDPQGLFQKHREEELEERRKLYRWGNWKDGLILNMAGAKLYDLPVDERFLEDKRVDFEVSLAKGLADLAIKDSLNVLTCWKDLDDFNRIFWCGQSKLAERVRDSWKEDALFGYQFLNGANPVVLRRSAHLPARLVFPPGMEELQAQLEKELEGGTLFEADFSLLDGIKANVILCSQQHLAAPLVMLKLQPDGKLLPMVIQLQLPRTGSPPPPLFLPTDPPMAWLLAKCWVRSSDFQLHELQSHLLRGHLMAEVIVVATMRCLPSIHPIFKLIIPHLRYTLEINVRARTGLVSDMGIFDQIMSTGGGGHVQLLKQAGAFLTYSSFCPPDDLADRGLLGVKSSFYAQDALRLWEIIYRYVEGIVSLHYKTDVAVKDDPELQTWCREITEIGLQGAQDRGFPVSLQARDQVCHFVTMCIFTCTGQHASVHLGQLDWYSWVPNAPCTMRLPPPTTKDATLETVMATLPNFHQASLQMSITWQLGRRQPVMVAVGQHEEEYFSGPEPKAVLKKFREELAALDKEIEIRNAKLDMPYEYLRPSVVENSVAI
# testSummary: 15-LOX IC50 determination, UV-Vis assay with arachidonic acid substrate (selectivity)
# Assay type: biochemical
# measurementContext: selectivity for 12-LOX over 15-LOX; 120 nM 15-LOX, AA substrate
Listing of recorded Selectivity over 15-LOX by entry.

For orientation, consider the following solved cases.
INSERT INTO assay_data (linenotation, endpointvalue) VALUES
  ('COc1cccc(CNc2cnc(S(=O)(=O)Nc3nc(-c4ccc(F)c(Cl)c4)c(F)s3)c(-c3ccccc3)c2)c1O', '>50-fold'),
  ('[2H]C([2H])([2H])Oc1cccc(CNc2cnc(S(=O)(=O)Nc3nc(-c4ccc(Cl)c(F)c4)c(F)s3)c(C([2H])([2H])[2H])c2)c1O', '<20-fold');

# input for lookup
Query: Fill in Selectivity over 15-LOX for record COc1cccc(CNc2cnc(S(=O)(=O)Nc3nc(-c4ccc(F)c(F)c4)c(F)s3)c(C)c2)c1O
Result: >50-fold

Reference source: patent US20250066345A1
